Listed here are substances together with their documented MIC80 synthetized peptides.
# Tested on: C. albicans ATCC 90028
# TEST_DETAILS: Broth microdilution MIC determination
# Type: cell-based, Candida albicans
# CONDITION_SET: 80% inhibition of growth in liquid medium (TSB), 37 °C, 18 h, mean of three replicates ± SD
Ends that are not written are not given here.
Express your answer in µM, writing the number without its unit.

Answered examples (3):
SUBSTANCE	UNIT_INFO	MIC80 synthetized peptides
QAGSNKGASQKGMS-NH2 [P2]	µM	100
GEGIIGLQAGTNKFASQIGMKIGAVRHIADIR-NH2 [P4]	µM	180
EGQGVISLQAGTNK-NH2 [P3]	µM	100

// next item, MIC80 synthetized peptides requested
Entry QAGTNK-NH2 [P1] ; MIC80 synthetized peptides = 200

Attribution: paper PMC7460285
